The following binders are shown together with reported glycan array binding signal (z-score) values.
Target: Gal(b1-3)[Fuc(a1-4)]GlcNAc(b1-3)Gal(b1-3)[Fuc(a1-4)]GlcNAc
Assay: glycan array binding signal (z-score within array); higher = stronger binding
Settings: glycan notation: IUPAC condensed, linker removed
This is one part of a sample in which the strongest signals are shown more often than they occur.
Could you keep your reply to the number by itself?

{"binder": "EULS2 M1 (Oryza sativa) (protein) MVYCRANPNYAMTARNGAVVLAPANPKDEYQHWIKDMRWSTSIKDEEGYPAFALVNKATGQAIKHSLGQSHPVRLVPYNPEVMDESVLWTESRDVGNGFRCIRMVNNIYLNFDAFHGDKYHGGVRDGTDIVLWKLCEGDNQRWKIQPYYILEQKLISEEDLNSAVDHHHHHH", "measured-result": 3.42}

Data request: Returns the measured glycan array binding signal (z-score) for the input binder. Input: Regenerating Gene I (Homo sapiens), P05451 (protein) MAQTSSYFMLISCLMFLSQSQGQEAQTELPQARISCPEGTNAYRSYCYYFNEDRETWVDADLYCQNMNSGNLVSVLTQAEGAFVASLIKESGTDDFNVWIGLHDPKKNRRWHWSSGSLVSYKSWGIGAPSSVNPGYCVSLTSSTGFQKWKDVPCEDKFSFVCKFKN
Data returned: -0.396

Data request: I'd like to know its glycan array binding signal (z-score). The binder in question is ArathEULS3 TAP (Arabidopsis thaliana) (protein) IDENLYFQGGSMDEKTTGWRGGHVVEGLAGELEQLRARLEHHPQGQREPGGGGSLEITSLYKKAGFMEHHHQHHRHHQRDDGEDDRQSFGVPPPHVDAPPQPHGLYQSQPHFDPYAPTPQAPAPYRSETQFEPHAPPPYRSEPYFETPAPPPSFGHVSHVGHQSPNESYPPEHHRYGGYQQPSNSLLESHGDHSGVTHVAHHSSNQPQSSSGVYHKPDENRLPDNLAGLAGRATVKVYSKAEPNYNLTIRDGKVILAPADPSDEAQHWYKDEKYSTKVKDADGHPCFALVNKATGEAMKHSVGATHPVHLIRYVPDKLDESVLWTESKDFGDGYRTIRMVNNTRLNVDAYHGDSKSGGVRDGTTIVLWDWNKGDNQLWKIFPF
Data returned: -0.335
